Where do the numbers come from? From PubChem BioAssay (NCI).

Recorded growth values for a group of molecules are listed next.
system: SF-295 CNS; assay: NCI-60 one-dose screen, 48 h (100 = growth as untreated, 0 = no growth, -100 = all killed); conditions: 10 µM
This is part of a sample that, as a whole, favours compounds with a hit. Of some 83,000 tested, about 20% had one in any assay.
The figure you give is taken to be in %; do not add the unit.

Some solved cases for reference:
smiles_representation=COc1ccccc1-n1c(-c2sc(NC(C)=O)nc2C)n[nH]c1=S value_kind=growth result_value=83.2
smiles_representation=CNC(=O)c1c(I)c(NC(C)=O)c(I)c(C(=O)O)c1I value_kind=growth result_value=119
smiles_representation=N#Cc1c(-c2ccc(Cl)cc2)n(O)c2ccccc12 value_kind=growth result_value=42.1
smiles_representation=COc1cc(Cc2cc(-c3ccccc3)n[nH]c2=O)cc(OC)c1OC value_kind=growth result_value=61.3
smiles_representation=COc1ccc(C(=O)COc2cccc(/C=C3\Cc4ccccc4C3=O)c2)cc1 value_kind=growth result_value=87.1
smiles_representation=CCOC(=O)c1cc(C(=O)c2cc(OC)c(OC)c(OC)c2)n2ccc(-c3cc[n+](CC(=O)c4cc(OC)c(OC)c(OC)c4)cc3)cc12 value_kind=growth result_value=94.3
smiles_representation=O=C(N/N=C/c1c(Cl)cccc1Cl)c1ccccc1Nc1cccc(C(F)(F)F)c1 value_kind=growth result_value=61.5
smiles_representation=O=C(CCCSc1nc(-c2ccc(Cl)cc2)cc(-c2ccc(Cl)cc2)n1)NO value_kind=growth result_value=-4.84

**Query** So what's the measured growth for this one? COc1cccc(-c2nc3sccn3c2-c2cccc(S(C)(=O)=O)c2)c1
**Result** 94.4

**Query** Follow-up entry: c1ccc(/C(=N\Nc2ccc3ccccc3n2)c2ccccn2)cc1
**Result** -15.8

**Query** Follow-up entry: COc1cc2cc(Oc3ccc(NC(=O)c4cc(C(F)(F)F)cc(C(F)(F)F)c4)cc3)c(C)nc2cc1OC
**Result** 6.46

**Query** Follow-up entry: COc1ccc(N=Nc2cc(OC)c(OC)c(OC)c2)cc1
**Result** 83.6

**Query** Follow-up entry: COc1ccc(CCN2CCC(Nc3nc4ccccc4n3Cc3ccc(F)cc3)CC2)cc1
**Result** -85.7
